# Test system: SK-OV-3
# assay.remarks: NCI tumour cell line growth inhibition, 48 h
Activity calls are given as the source filed them. No stated cut-off is given here; in the data, active = GI50 up to about 1.1 µM and inactive = higher.
// GI50 lookup, one value per entry

{"compound": "CCN(CC)CCn1nc(N)c2nc3ccccc3nc21", "assayed.system": "SK-OV-3", "GI50": "> 100 µM (inactive)"}
{"compound": "CCCCCCCCCC(=O)CC(=O)c1ccc(O)cc1O", "assayed.system": "SK-OV-3", "GI50": "> 100 µM (inactive)"}
{"compound": "COCCN(CCOC)C(=O)COc1c2cc(C(C)(C)C)cc1Cc1cc(C(C)(C)C)cc(c1OCC(=O)N(CCOC)CCOC)Cc1cc(C(C)(C)C)cc(c1OCC(=O)N(CCOC)CCOC)Cc1cc(C(C)(C)C)cc(c1OCC(=O)N(CCOC)CCOC)Cc1cc(C(C)(C)C)cc(c1OCC(=O)N(CCOC)CCOC)C2", "assayed.system": "SK-OV-3", "GI50": "3.05 µM (inactive)"}
{"compound": "Cc1c2cc[n+](C)cc2c(C)c2c1[nH]c1ccc(O)cc12 [ELLIPTINIUM ACETATE]", "assayed.system": "SK-OV-3", "GI50": "46.5 µM (inactive)"}

====

# Tested on: MCF7
# assay.remarks: NCI tumour cell line growth inhibition, 48 h
Calls of active or inactive are those of the source. Rule as the data show it: active = GI50 up to about 1.1 µM and inactive = higher.
// GI50 lookup, one value per entry

{"molecule": "COP1(=O)NCc2ncccc2O1 (stereo not given)", "assayed.system": "MCF7", "GI50": "> 100 µM (inactive)"}
{"molecule": "CC1(C)Cc2c(c3ccccc3c3nc4c(nc23)c2c(c3ccccc34)OC(C)(C)C2)O1", "assayed.system": "MCF7", "GI50": "> 100 µM (inactive)"}
{"molecule": "Cn1ccc(C(=O)NCCN(CCNC(=O)c2ccn(C)c(=O)c2O)CCNC(=O)c2ccn(C)c(=O)c2O)c(O)c1=O", "assayed.system": "MCF7", "GI50": "> 100 µM (inactive)"}
{"molecule": "CC(C)(C)OC(=O)NCC(c1c[nH]c2cc(Br)ccc12)c1c[nH]c2cc(Br)ccc12", "assayed.system": "MCF7", "GI50": "18.6 µM (inactive)"}
{"molecule": "Clc1ccc(/C=c2\\nc(-c3ccccc3)n3c2nc2ccccc23)cc1", "assayed.system": "MCF7", "GI50": "> 100 µM (inactive)"}
{"molecule": "CC(C)(C)[Si](C)(C)OC1CCOC1(O)c1ccccn1 (stereo not given)", "assayed.system": "MCF7", "GI50": "> 100 µM (inactive)"}
{"molecule": "COc1ccc2cc(C(C)C(O)c3cc(F)c(F)c(F)c3F)ccc2c1 (stereo not given)", "assayed.system": "MCF7", "GI50": "> 100 µM (inactive)"}
{"molecule": "CN(C)CCNC(=O)c1c(O)ccc2c1c1c(n2CCc2ccccc2)C(=O)c2ccccc2C1=O", "assayed.system": "MCF7", "GI50": "3.37 µM (inactive)"}
{"molecule": "Cc1c2cc[n+](C)cc2c(C)c2c1[nH]c1ccc(O)cc12 [ELLIPTINIUM ACETATE]", "assayed.system": "MCF7", "GI50": "8.75 µM (inactive)"}
{"molecule": "COc1ccc(CCNCCCC2c3ccccc3-c3ccccc32)cc1OC", "assayed.system": "MCF7", "GI50": "6.7 µM (inactive)"}

====

# Tested on: ACHN
# assay.remarks: NCI tumour cell line growth inhibition, 48 h
The source made the active and inactive calls. Cut-off read from the data, not from the text of the source: active = GI50 up to about 1.1 µM and inactive = higher.
Outcomes: Yes (active), No (inactive)

{"compound": "CC(C)c1ccc2c(c1)CCC1C(C)(CN)CCCC21C (stereo not given)", "assayed.system": "ACHN", "category": "No"}
{"compound": "CCOC(=O)c1c2ccccc2n2c(=O)n(-c3ccccc3)nnc12", "assayed.system": "ACHN", "category": "No"}
{"compound": "CSc1ccc(NC(=O)Nc2cc(C)ccn2)cc1", "assayed.system": "ACHN", "category": "No"}
{"compound": "CC(C)(C)C1(COC(=O)c2ccc(N)cc2)COC1", "assayed.system": "ACHN", "category": "No"}
{"compound": "O=C1[C@@H]2C(c3ccccc3[N+](=O)[O-])=NO[C@@H]2C(=O)N1c1ccc(Cc2ccc(N3C(=O)[C@H]4C(c5ccccc5[N+](=O)[O-])=NO[C@H]4C3=O)cc2)cc1", "assayed.system": "ACHN", "category": "No"}
{"compound": "COc1cc(C2S/C(=C/c3ccccc3)C(=O)N2c2ccc(Cl)cc2)cc(OC)c1OC (stereo not given)", "assayed.system": "ACHN", "category": "Yes"}
{"compound": "Oc1cc(-c2ccccc2)c2ccccc2n1", "assayed.system": "ACHN", "category": "No"}
{"compound": "C(/C=N/c1ccccc1)=C(/Nc1ccccc1)C12CC3CC(CC(C3)C1)C2", "assayed.system": "ACHN", "category": "No"}
{"compound": "O=C(O)C1(CC(CCCN2CCCCC2)c2ccccc2)CCCC1 (stereo not given)", "assayed.system": "ACHN", "category": "No"}
{"compound": "OCc1ccc(C2CC(c3ccco3)=NN2c2ccccc2)o1 (stereo not given)", "assayed.system": "ACHN", "category": "No"}

====

// GI50 lookup, one value per entry
# Test system: UACC-257
# assay.remarks: NCI tumour cell line growth inhibition, 48 h
Activity calls are given as the source filed them. No stated cut-off is given here; in the data, active = GI50 up to about 1.1 µM and inactive = higher. Where a SMILES comes first, the peptide text is derived from it. [ ]: non-standard residue; d: D form. The star is where a group is joined. ξ: configuration not given here. NMeF = CN[C@@H](Cc1ccccc1)C(=O)O; NMeV = CN[C@H](C(=O)O)C(C)C; ξNMeN = CNC(CC(N)=O)C(=O)O; NMeA = CN[C@@H](C)C(=O)O; ξNMeV = CNC(C(=O)O)C(C)C; Boc = CC(C)(C)OC(=O)*
readout.name: GI50

{"compound": "COc1ccccc1/C=C1\\CCC(CN(C)C)C1=O (centres undefined)", "readout.name": "GI50", "reported.measurement": "10.8 µM (inactive)"}
{"compound": "c1cc(CNCCN2CCNCC2)ccn1", "readout.name": "GI50", "reported.measurement": "> 100 µM (inactive)"}
{"compound": "NCCCCN(CCCN)Cc1ccccc1", "readout.name": "GI50", "reported.measurement": "> 100 µM (inactive)"}
{"compound": "COC(=O)C(COC(=O)/C=C/c1ccc(OC(C)=O)c(OC(C)=O)c1)OC(=O)/C=C/c1ccc(OC(C)=O)c(OC(C)=O)c1 (centres undefined)", "readout.name": "GI50", "reported.measurement": "15.7 µM (inactive)"}
{"compound": "CCOC(=O)C1(C)C2=CC=C(O2)C(C)(C)C2=CC=C(O2)C(C)(C)C2=CC=C(O2)C(C)(C)C2=CC=C1O2", "readout.name": "GI50", "reported.measurement": "> 100 µM (inactive)"}
{"compound": "CCCCCCCCCCCCC(CCCCCCCCCCCC)OP(=O)(O)O", "readout.name": "GI50", "reported.measurement": "> 100 µM (inactive)"}
{"compound": "CC1=C(C#N)C(=O)N(/N=C/c2ccc(Cl)cc2)C(=O)/C1=c1\\o/c(=C2/C(=O)N(/N=C/c3ccc(Cl)cc3)C(=O)C(C#N)=C2C)c2nccnc12", "readout.name": "GI50", "reported.measurement": "> 100 µM (inactive)"}
{"compound": "CC1(C)N=c2c(ncn2-c2ccccc2)=C(C(N)=O)N1", "readout.name": "GI50", "reported.measurement": "> 100 µM (inactive)"}
{"compound": "Cc1cc2nc3[nH]nc(N)c3nc2cc1C", "readout.name": "GI50", "reported.measurement": "> 100 µM (inactive)"}
{"compound": "COC(=O)[C@H](C)N(C)C(=O)C(CC(N)=O)N(C)C(=O)[C@H](Cc1ccccc1)N(C)C(=O)[C@@H]1CCCN1C(=O)[C@H](C(C)C)N(C)C(=O)C(C(C)C)N(C)C(=O)[C@@H](NC(=O)OC(C)(C)C)C(C)C (some centres undefined) (Boc-V[ξNMeV][NMeV]P[NMeF][ξNMeN][NMeA]-OMe)", "readout.name": "GI50", "reported.measurement": "> 50 µM (inactive)"}
{"compound": "Cc1ccc(C)n2c1nc1ccc3ccccc3c12", "readout.name": "GI50", "reported.measurement": "> 100 µM (inactive)"}
{"compound": "Oc1cc(-c2ccccc2)c2ccccc2n1", "readout.name": "GI50", "reported.measurement": "61 µM (inactive)"}
{"compound": "CC(OC(=O)C(CC(=O)OC(C)(C)C)NC(=O)OC(C)(C)C)C(=O)OCc1ccccc1 (centres undefined)", "readout.name": "GI50", "reported.measurement": "> 100 µM (inactive)"}
{"compound": "C/N=c1\\ss/c(=N\\C(=S)N(C)C)n1C", "readout.name": "GI50", "reported.measurement": "> 100 µM (inactive)"}
{"compound": "CCOC(=O)C1=C(Nc2ccc(Br)cc2)OC/C1=N\\NC(=O)c1ccccc1O", "readout.name": "GI50", "reported.measurement": "23 µM (inactive)"}
{"compound": "C[C@]12CC[C@H]3[C@@H](CCC4=C[C@@H](N5CCCC5)CC[C@@]43C)[C@@H]1C/C(=C\\c1ccncc1)[C@@H]2O", "readout.name": "GI50", "reported.measurement": "6.19 µM (inactive)"}
{"compound": "COC(=O)c1ccccc1OCc1cc(=O)oc2ccc(C)cc12", "readout.name": "GI50", "reported.measurement": "> 87.3 µM (inactive)"}
{"compound": "COc1ccccc1NC(=O)C(=O)Cc1cnc2ccccc2n1", "readout.name": "GI50", "reported.measurement": "> 100 µM (inactive)"}
{"compound": "CC(=O)OC1OC(c2ccoc2)C[C@@]12C1CCC3O[C@]3(C)[C@]1(C)C[C@H](OC(C)=O)[C@H]2C (some centres undefined)", "readout.name": "GI50", "reported.measurement": "> 75 µM (inactive)"}
